Species on record: Oryctolagus cuniculus
PROTOCOL_DETAILS: Blockade of calcium-evoked contractions evaluated in depolarized rabbit aortic strips
Assay type: functional
EXPERIMENTAL_SETUP: Aorta
EXPERIMENTAL_ENDPOINT: pIC50
One number for each entry, as −log10 of the molar value.

These recorded examples may help you get a feel for the data.
MOLECULE	pIC50
CC1=NC(C)=C(C(=O)OCCN2C(=O)c3ccccc3S2(=O)=O)C(c2ccccc2[N+](=O)[O-])/C1=C(\O)OC(C)(C)C (configuration not stated)	9.15
CO/C(O)=C1\C(C)=NC(C)=C(C(=O)OCCCN2C(=O)c3ccccc3S2(=O)=O)C1c1cccc([N+](=O)[O-])c1 (configuration not stated)	8.59
COCCO/C(O)=C1\C(C)=NC(C)=C(C(=O)OCCCN2C(=O)c3ccccc3S2(=O)=O)C1c1ccccc1Cl (configuration not stated)	8.54
CCO/C(O)=C1\C(C)=NC(C)=C(C(=O)OCCCN2C(=O)c3ccccc3S2(=O)=O)C1c1ccccc1[N+](=O)[O-] (configuration not stated)	8.59
CO/C(O)=C1\C(C)=NC(C)=C(C(=O)OCCCN2C(=O)c3ccccc3S2(=O)=O)C1c1ccccc1[N+](=O)[O-] (configuration not stated)	8.82

Dear colleague, could you please provide pIC50 for the molecules listed below?
1. CC1=NC(C)=C(C(=O)OCCN2C(=O)c3ccccc3S2(=O)=O)C(c2ccccc2C(F)(F)F)/C1=C(\O)OCC1CCCCO1 (configuration not stated)
2. CCO/C(O)=C1\C(C)=NC(C)=C(C(=O)OCCCN2C(=O)c3ccccc3S2(=O)=O)C1c1ccccc1C(F)(F)F (configuration not stated)

7.59
9.10

Data provenance: ChEMBL document CHEMBL1126270
